# System: Bacillus cereus
# assayText: Antimicrobial activity against Bacillus cereus 1.932 assessed as absence bacterial growth measured after 18 to 24 hrs incubation by NCCLS method
# Assay type: functional
# appliedConditions: time 18-24 hrs
Each entry below carries its recorded MIC.

Qu. // fetch MIC; item: "H-GKLWLKGGKLWLKGAKLWLKG-NH2" ; system: Bacillus cereus
Ans. 4 µM

Qu. // fetch MIC; item: "H-GKLWLKGLKLWLKGGKLWLKG-NH2" ; system: Bacillus cereus
Ans. 4 µM

Qu. // fetch MIC; item: "H-AKLWLKGGKLWLKGGKLWLKG-NH2" ; system: Bacillus cereus
Ans. > 32 µM

Qu. // fetch MIC; item: "H-WKLWLKGGKLWLKGGKLWLKG-NH2" ; system: Bacillus cereus
Ans. > 32 µM

Qu. // fetch MIC; item: "H-GKLWLKGGKLWLKGGKLWLKG-NH2" ; system: Bacillus cereus
Ans. > 32 µM

Qu. // fetch MIC; item: "H-GKLWLKGMKLWLKGGKLWLKG-NH2" ; system: Bacillus cereus
Ans. 1 µM

Qu. // fetch MIC; item: "H-GKLWLKGCKLWLKGGKLWLKG-NH2" ; system: Bacillus cereus
Ans. 4 µM

====

# System: Staphylococcus aureus
# assayText: Antimicrobial activity against Staphylococcus aureus 29213 assessed as absence bacterial growth measured after 18 to 24 hrs incubation by NCCLS m
# Format: functional
# appliedConditions: time 18-24 hrs
assayReadout: MIC (µM)
# output: bare number, implied unit µM

Please review the entries below; each comes with its answer.
In [3]: df
Out[3]:
                     substance  assayreadout  unittag  measured
0  H-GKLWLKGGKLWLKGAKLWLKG-NH2           MIC       µM         4
1  H-GKLWLKAGKLWLKGGKLWLKG-NH2           MIC       µM         4
2  H-GKLWLKGFKLWLKGGKLWLKG-NH2           MIC       µM         4
3  H-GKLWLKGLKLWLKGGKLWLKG-NH2           MIC       µM         4
4  H-GKLWLKGVKLWLKGGKLWLKG-NH2           MIC       µM         2

Qu. // fetch MIC; item: "H-GKLWLKGMKLWLKGGKLWLKG-NH2" ; system: Staphylococcus aureus
Ans. 4

Qu. // fetch MIC; item: "H-AKLWLKAAKLWLKAAKLWLKA-NH2" ; system: Staphylococcus aureus
Ans. 2

====

# Tested on: Acinetobacter baumannii
# assayText: Antimicrobial activity against Acinetobacter baumannii 1.6769 assessed as bacterial killing measured after 16 hrs incubation
# Type: functional
Each entry below carries its recorded MBC.
# output: bare number, implied unit µM

Qu. Entry "H-GKLWLKGVKLWLKGGKLWLKG-NH2" needs its MBC filled in; supply it.
Ans. 4

Qu. Entry "H-GKLWLKGGKLWLKAGKLWLKG-NH2" needs its MBC filled in; supply it.
Ans. 4

Qu. Entry "H-WKLWLKGGKLWLKGGKLWLKG-NH2" needs its MBC filled in; supply it.
Ans. 4

Qu. Entry "H-AKLWLKGGKLWLKGGKLWLKG-NH2" needs its MBC filled in; supply it.
Ans. 16

Qu. Entry "H-GKLWLKGGKLWLKGGKLWLKA-NH2" needs its MBC filled in; supply it.
Ans. 4

====

# assayText: Cytotoxicity against mouse RAW264.7 cells assessed as cell survival rate at 32 to 64 uM measured after 8 hrs by MTT assay relative to control
# Type: toxicity, cell-based
# appliedConditions: dose 32-64 µM, read-out: Activity
assayReadout: viability at 8 h, up to 64 µM (%)
# output: bare number, implied unit %

Please review the entries below; each comes with its answer.
>>> print(df.to_string())
                     substance  measured
0  H-GKLWLKGAKLWLKGGKLWLKG-NH2        60
1  H-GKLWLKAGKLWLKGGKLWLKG-NH2        60

Moving on to the next substance.
Qu. Entry "H-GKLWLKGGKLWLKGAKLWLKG-NH2" needs its viability at 8 h, up to 64 µM filled in; supply it.
Ans. 60

====

# Tested on: Escherichia coli
# assayText: Antimicrobial activity against Escherichia coli K88 assessed as absence bacterial growth measured after 18 to 24 hrs incubation by NCCLS method
# Assay type: functional
# appliedConditions: time 18-24 hrs
assayReadout: MIC (µM)
# output: bare number, implied unit µM

Please review the entries below; each comes with its answer.
>>> df
                     substance  measured
0  H-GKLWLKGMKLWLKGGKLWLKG-NH2         1
1  H-GKLWLKGWKLWLKGGKLWLKG-NH2         1
2  H-FKLWLKGGKLWLKGGKLWLKG-NH2         1
3  H-IKLWLKGGKLWLKGGKLWLKG-NH2         2
4  H-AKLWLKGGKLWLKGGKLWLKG-NH2         1

Qu. Entry "H-GKLWLKGGKLWLKGGKLWLKA-NH2" needs its MIC filled in; supply it.
Ans. 0.5

Qu. Entry "H-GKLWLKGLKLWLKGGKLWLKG-NH2" needs its MIC filled in; supply it.
Ans. 1

Qu. Entry "H-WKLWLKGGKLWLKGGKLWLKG-NH2" needs its MIC filled in; supply it.
Ans. 1

Qu. Entry "H-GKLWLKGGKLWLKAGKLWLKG-NH2" needs its MIC filled in; supply it.
Ans. 1

Qu. Entry "H-VKLWLKGGKLWLKGGKLWLKG-NH2" needs its MIC filled in; supply it.
Ans. 1

Qu. Entry "H-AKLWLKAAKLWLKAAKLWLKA-NH2" needs its MIC filled in; supply it.
Ans. 0.5

Qu. Entry "H-CKLWLKGGKLWLKGGKLWLKG-NH2" needs its MIC filled in; supply it.
Ans. 2

Qu. Entry "H-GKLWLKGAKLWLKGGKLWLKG-NH2" needs its MIC filled in; supply it.
Ans. 1

Qu. Entry "H-LKLWLKGGKLWLKGGKLWLKG-NH2" needs its MIC filled in; supply it.
Ans. 1

Qu. Entry "H-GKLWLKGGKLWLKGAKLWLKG-NH2" needs its MIC filled in; supply it.
Ans. 1

Qu. Entry "H-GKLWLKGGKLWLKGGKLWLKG-NH2" needs its MIC filled in; supply it.
Ans. 1

Qu. Entry "H-MKLWLKGGKLWLKGGKLWLKG-NH2" needs its MIC filled in; supply it.
Ans. 1

Qu. Entry "H-GKLWLKGIKLWLKGGKLWLKG-NH2" needs its MIC filled in; supply it.
Ans. 1

Qu. Entry "H-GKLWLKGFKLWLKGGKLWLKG-NH2" needs its MIC filled in; supply it.
Ans. 1

Qu. Entry "H-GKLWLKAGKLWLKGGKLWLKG-NH2" needs its MIC filled in; supply it.
Ans. 0.5

Qu. Entry "H-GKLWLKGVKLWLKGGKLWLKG-NH2" needs its MIC filled in; supply it.
Ans. 0.5

Qu. Entry "H-GKLWLKGCKLWLKGGKLWLKG-NH2" needs its MIC filled in; supply it.
Ans. 2

====

# assayText: Cytotoxicity against mouse RAW264.7 cells assessed as cell survival rate measured after 8 hrs by MTT assay
# Format: toxicity, cell-based
Each entry below carries its recorded IC50 at 8 h.

Please review the entries below; each comes with its answer.
>>> df
                     substance  measured
0  H-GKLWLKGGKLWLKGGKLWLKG-NH2   > 64 µM
1  H-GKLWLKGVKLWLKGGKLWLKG-NH2   61.3 µM
2  H-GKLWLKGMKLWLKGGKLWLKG-NH2   > 64 µM
3  H-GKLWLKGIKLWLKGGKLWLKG-NH2   36.9 µM
4  H-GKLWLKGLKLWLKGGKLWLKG-NH2   32.7 µM
5  H-LKLWLKGGKLWLKGGKLWLKG-NH2   > 64 µM

Qu. Entry "H-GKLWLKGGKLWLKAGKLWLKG-NH2" needs its IC50 at 8 h filled in; supply it.
Ans. > 64 µM

Qu. Entry "H-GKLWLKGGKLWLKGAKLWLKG-NH2" needs its IC50 at 8 h filled in; supply it.
Ans. > 64 µM

Qu. Entry "H-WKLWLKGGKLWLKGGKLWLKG-NH2" needs its IC50 at 8 h filled in; supply it.
Ans. > 64 µM

Qu. Entry "H-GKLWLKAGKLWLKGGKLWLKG-NH2" needs its IC50 at 8 h filled in; supply it.
Ans. > 64 µM

Qu. Entry "H-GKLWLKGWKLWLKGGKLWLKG-NH2" needs its IC50 at 8 h filled in; supply it.
Ans. 53.5 µM

Qu. Entry "H-MKLWLKGGKLWLKGGKLWLKG-NH2" needs its IC50 at 8 h filled in; supply it.
Ans. > 64 µM

Qu. Entry "H-FKLWLKGGKLWLKGGKLWLKG-NH2" needs its IC50 at 8 h filled in; supply it.
Ans. > 64 µM

Qu. Entry "H-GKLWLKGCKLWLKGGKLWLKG-NH2" needs its IC50 at 8 h filled in; supply it.
Ans. > 64 µM

Qu. Entry "H-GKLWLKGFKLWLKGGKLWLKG-NH2" needs its IC50 at 8 h filled in; supply it.
Ans. 31 µM

Qu. Entry "H-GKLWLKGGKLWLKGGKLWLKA-NH2" needs its IC50 at 8 h filled in; supply it.
Ans. > 64 µM

Qu. Entry "H-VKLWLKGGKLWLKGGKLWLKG-NH2" needs its IC50 at 8 h filled in; supply it.
Ans. > 64 µM

Qu. Entry "H-IKLWLKGGKLWLKGGKLWLKG-NH2" needs its IC50 at 8 h filled in; supply it.
Ans. > 64 µM

Qu. Entry "H-CKLWLKGGKLWLKGGKLWLKG-NH2" needs its IC50 at 8 h filled in; supply it.
Ans. 60.1 µM

Qu. Entry "H-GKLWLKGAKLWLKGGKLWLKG-NH2" needs its IC50 at 8 h filled in; supply it.
Ans. > 64 µM

Qu. Entry "H-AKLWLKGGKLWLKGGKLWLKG-NH2" needs its IC50 at 8 h filled in; supply it.
Ans. > 64 µM
